Where do these numbers come from? They come from patent US10662204B2.

Biological target: GDP-loaded KRAS (1-169) G12C, C51S, C80L, C118S (Homo sapiens, UniProt P01116, C118S/C51S/C80L/G12C)
Construct: GDP-loaded KRAS (1-169) G12C, C51S, C80L, C118S
Experiment: Mass Spectrometry Reactivity Assay (MSRA): covalent adduct of compound and KRAS G12C, Percent Modification
Assay type: binding
Settings: 10 μM compound, 0.25 hr
Catalogue of MSRA (% modification) 10 μM 0.25 hr values
Quantity kind: MSRA (% modification) 10 μM 0.25 hr (%)

- C=CC(=O)N1CCN(c2nc(OC[C@H]3COCCN3C)nc3c(Oc4c(Cl)c(F)cc5[nH]ncc45)nc(Cl)cc23)CC1 [Example 08G]: 80
- C=CC(=O)N1CCN(c2nc(OC[C@@H]3CCOC3)nc3c(Oc4c(Cl)c(F)cc5[nH]ncc45)nccc23)CC1 [Example 05H]: 68
- C=CC(=O)N1CCN(c2ncnc3c(Oc4c(C)c(Cl)cc5[nH]ncc45)cccc23)CC1CC#N (stereo not drawn) [Example 22C]: 75
